- Test system: SF-268 CNS
- methodNotes: NCI tumour cell line growth inhibition, 48 h
Below is a list of entries, each paired with its recorded TGI value.

{"columns": ["compound", "TGI"],
 "data": [
  ["O=C1C(=O)c2ccccc2C(O)=C1CCCc1ccc(C2CCCC2)cc1", "51.5 µM"],
  ["COc1cccc(NC(=O)C(C)(C)C)c1SSc1c(NC(=O)C(C)(C)C)cccc1OC", "32.7 µM"]
]}

Qu. Form field: reported TGI of "NC(=S)N/N=C/c1ccc(N)cn1"
Ans. > 10 µM

Qu. Now the same for CC1(C)CCCC(C)(C2CCC3(C)C2C(O)CC2C4(C)CCC(O)C(C)(C)C4C(O)CC23C)O1 (stereo not given)
Ans. 31.9 µM

Qu. Now the same for CCC12CCCNC1c1c(n(C)c3ccccc13)C(C(=O)OC)C2 (stereo not given)
Ans. > 275 µM

Qu. Now the same for Cc1cc(S(=O)(=O)NC2=NC(c3ccccc3)c3cc(Cl)ccc3N2)c(S)cc1Cl (stereo not given)
Ans. > 100 µM

Qu. Now the same for CC(=O)OC1CC2(C)OC(Cc3ccccc32)O1 (stereo not given)
Ans. > 100 µM

Qu. Now the same for "CCCCCc1cc[n+](CC(=O)c2ccc([N+](=O)[O-])cc2)cc1"
Ans. > 100 µM

Qu. Now the same for "c1cc2nnc1SCCCSc1ccc(nn1)SCCCSc1ccc(nn1)SCCCS2"
Ans. > 100 µM

Qu. Now the same for "O=S(=O)(c1ccc(Br)cc1)N1CCN(S(=O)(=O)c2ccc(Br)cc2)CC1"
Ans. > 100 µM

Qu. Now the same for NC1(C(=O)O)CCc2ccc(N(CCCl)CCCl)cc2C1 (stereo not given)
Ans. 87 µM

Qu. Now the same for COc1cccc(C2ON=C(c3ccccc3)N2C23CC4CC(CC(C4)C2)C3)c1 (stereo not given)
Ans. > 10 µM

Qu. Now the same for C/C=C(/CCC1NCCC2c3ccccc3NC12)[Si](C)(C)C (stereo not given)
Ans. 23.5 µM

Qu. Now the same for "COC(=O)[C@@]1(Cc2ccc(O)cc2)C[C@@H]2Cc3ccccc3N2N1"
Ans. > 100 µM
